Each recorded value in this set is attributed to PubChem BioAssay (NCI).

Tested on: SNB-19 CNS
Assay: NCI-60 one-dose screen, 48 h (100 = growth as untreated, 0 = no growth, -100 = all killed)
Settings: 10 µM unless noted
This is part of a sample that, as a whole, favours compounds with a hit. Of some 83,000 tested, about 20% had one in any assay.
readout.type: growth (%)
Could you give me the number in %? Just the number is fine.

QUERY: Requested read-out: growth. Entry: CC(C)OC(=O)c1ccc2n1CCCc1cnc(Nc3ccccc3)nc1-2
RESULT: 89

QUERY: Requested read-out: growth. Entry: COc1ccc2cnc(N)c(C#Cc3cc(C(=O)Nc4ccc(CN5CCN(C)CC5)c(C(F)(F)F)c4)cnc3C)c2c1
RESULT: 80.5

QUERY: Requested read-out: growth. Entry: CCC(C)C1NC(=O)C(CCCCN)NC(=O)C(CCCCN)NC(=O)C(CC(C)C)NC(=O)C(CCCCN)NC(=O)C(C(C)CC)NC(=O)C(C(C)C)NC(=O)C(C(C)CC)NC(=O)C(CCCCN)NC(=O)C(CCCCN)NC(=O)C(C)NC(=O)C(CCCCN)NC(=O)C(CC(C)C)NC1=O (configuration not stated)
RESULT: 20.9

QUERY: Requested read-out: growth. Entry: CCC(C)C1NC(=O)C(CC(C)C)NC(=O)C(C)NC(=O)C(C(C)C)NC(=O)C(CCCCN)NC(=O)C(CC(C)C)NC(=O)C(C(C)C)NC(=O)[C@H](C)NC(=O)C(C(C)CC)NC(=O)C(CCCN=C(N)N)NC(=O)C(CCCCN)NC(=O)C(CCCN=C(N)N)NC(=O)C(CCCCN)NC(=O)C([C@H](C)CC)NC(=O)C(CCCCN)NC1=O (some centres not stated)
RESULT: 17.4

QUERY: Requested read-out: growth. Entry: CN(CCC#N)c1ccc(/C=C(\C#N)c2cccc(C(F)(F)F)c2)cc1
RESULT: 79

QUERY: Requested read-out: growth. Entry: CC(=O)Nc1nc(C)c(C(=O)NN)s1
RESULT: 94.4

QUERY: Requested read-out: growth. Entry: COc1ccc(C2=NN(C(=O)c3cc(-c4ccc(C)cc4)nc4ccccc34)C(c3cc(-c4ccccc4)nn3-c3ccccc3)C2)cc1 (configuration not stated)
RESULT: 83

QUERY: Requested read-out: growth. Entry: Cc1nc(N)sc1C(=O)NCCO
RESULT: 101

QUERY: Requested read-out: growth. Entry: O=C(N/N=C\c1ccc(Cl)cc1)C(=O)N/N=C\c1ccc(Cl)cc1
RESULT: 96

QUERY: Requested read-out: growth. Entry: COc1ccc(C(=O)CN2C(=O)NC(c3ccccc3)(c3ccccc3)C2=O)cc1
RESULT: 102

QUERY: Requested read-out: growth. Entry: O=C(/C=C/c1c[nH]c2ccccc12)c1cc2ccccc2o1
RESULT: 96.2

QUERY: Requested read-out: growth. Entry: C/C=C(/C)C(=O)OC1C=C(CO)C(=O)C(OC(=O)/C(C)=C\C)C1C(C)C (configuration not stated)
RESULT: -54

QUERY: Requested read-out: growth. Entry: COc1ccccc1CNCCCN1C(=O)c2ccc3c4c(ccc(c24)C1=O)C(=O)N(CCCNCc1ccccc1OC)C3=O
RESULT: -68.8

QUERY: Requested read-out: growth. Entry: NCCCOc1cc2ccccc2cc1C(=O)Nc1ccc(Cl)cc1OC(=O)c1cc2ccccc2cc1OCCCN
RESULT: -61.5

QUERY: Requested read-out: growth. Entry: Oc1ccccc1/C=N/N=C/c1c(O)ccc2ccccc12
RESULT: 99.4

QUERY: Requested read-out: growth. Entry: Oc1ccccc1\C=N/N=C/C=C/c1ccccc1
RESULT: 93.9

QUERY: Requested read-out: growth. Entry: Cc1nc2ccccc2c(=O)n1-c1cccc(OCc2cn(-c3cccc(O)c3)nn2)c1
RESULT: 91.2

###

System: SW-620 colon
Experiment: NCI-60 one-dose screen, 48 h (100 = growth as untreated, 0 = no growth, -100 = all killed)
Settings: 10 µM unless noted
Compounds without any hit were thinned out: in the full panel of roughly 83,000, 20% have a hit.
Assign labels as follows, please: Y for growth below 50%; N for growth equal to or exceeding 50%.

QUERY: Could you please tell me whether growth recorded for CCCCCCCCCCCCCCCCCC1=NCCN1CS(=O)(=O)O is less than 50%?
RESULT: Y

QUERY: Could you please tell me whether growth recorded for COc1ccc(C(=O)NCCNc2nccc(-c3c(-c4ccc(F)cc4)nc4sccn34)n2)cc1 is less than 50%?
RESULT: N

QUERY: Could you please tell me whether growth recorded for CC(=O)Nc1ccc(S(=O)(=O)Cl)cc1 is less than 50%?
RESULT: N

QUERY: Could you please tell me whether growth recorded for CCOC(=O)CSSCC(=O)OCC is less than 50%?
RESULT: N

QUERY: Could you please tell me whether growth recorded for COc1ccc(-c2nc(SCC(C)C)nc(Nc3ccc(C(=O)O)cc3)c2C#N)cc1 is less than 50%?
RESULT: N

QUERY: Could you please tell me whether growth recorded for CC(C)(C)C(=O)CCCCCCCC/C=C/CCCC(O)c1ccco1 (stereo unspecified) is less than 50%?
RESULT: N

QUERY: Could you please tell me whether growth recorded for COC(=O)c1ccc2[nH]c(O)c(C(=Nc3ccc(N(C)C(=O)CN4CCN(C)CC4)cc3)c3ccc4c(c3)OCO4)c2c1 is less than 50%?
RESULT: Y

QUERY: Could you please tell me whether growth recorded for COc1ccc(Cn2cc3c(c2-c2ccc(O)cc2)CCc2cnoc2-3)cc1 is less than 50%?
RESULT: Y

QUERY: Could you please tell me whether growth recorded for COC1(OC)N=C(N)C2(C#N)C3(C(=O)Nc4ccccc43)C12C#N (stereo unspecified) is less than 50%?
RESULT: N

QUERY: Could you please tell me whether growth recorded for COc1ccc(-c2nc(N)n(C(=S)Nc3ccccc3)n2)cc1 is less than 50%?
RESULT: N

QUERY: Could you please tell me whether growth recorded for CCCCCCC(=O)C(C)C is less than 50%?
RESULT: N

###

Tested on: HOP-92 NSCLC
Assay: NCI-60 one-dose screen, 48 h (100 = growth as untreated, 0 = no growth, -100 = all killed)
Settings: 10 µM
This is part of a sample that, as a whole, favours compounds with a hit. Of some 83,000 tested, about 20% had one in any assay.
I'd appreciate it if you could supply growth values for the items below.
Could you give me the number in %? Just the number is fine.

QUERY: Requested read-out: growth. Entry: COc1ccc(C(=O)CN2C(=O)NC(c3ccccc3)(c3ccccc3)C2=O)cc1
RESULT: 71.5

QUERY: Requested read-out: growth. Entry: Cc1nc2ccccc2c(=O)n1-c1cccc(OCc2cn(-c3cccc(O)c3)nn2)c1
RESULT: 81.6

QUERY: Requested read-out: growth. Entry: CCCNC(=O)Oc1ccc(/C(=C(/CC)Cc2ccccc2)c2ccc(OCCN(CC)CC)cc2)cc1
RESULT: 55.7

QUERY: Requested read-out: growth. Entry: N=C(N)N=Nc1ccc(NN=C(N)N)cc1
RESULT: 96

QUERY: Requested read-out: growth. Entry: COC(=O)c1ccc(C(=Nc2ccc(N(C)C(=O)CN3CCN(C)CC3)cc2)c2c(O)[nH]c3ccc(C(=O)OC)cc23)cc1
RESULT: 51.1

QUERY: Requested read-out: growth. Entry: CCCCCCN(CCCCCC)CCC(=O)Nc1ccc(S(=O)(=O)c2ccc(NC(=O)CCN(CCCCCC)CCCCCC)cc2)cc1
RESULT: 69.4

QUERY: Requested read-out: growth. Entry: O=C(N/N=C\c1ccc(-c2ccc(Br)cc2)o1)c1cc2oc(-c3cccc(C(F)(F)F)c3)cc2[nH]1
RESULT: 111

QUERY: Requested read-out: growth. Entry: C/C(=N\Nc1ccc(Cl)cn1)c1ccc2ccccc2n1
RESULT: 34.4

QUERY: Requested read-out: growth. Entry: Cc1nc(NC(=S)Nc2ccc(F)cc2)sc1C(=O)NNC(=S)Nc1ccc(F)cc1
RESULT: 19.7

QUERY: Requested read-out: growth. Entry: CCCCCCCCc1ccc(CCC(N)(CO)CO)cc1
RESULT: -5.83

QUERY: Requested read-out: growth. Entry: O=C1/C(=C\c2cn(-c3nc(N4CCOCC4)nc(N4CCOCC4)n3)c3ccccc23)c2ccccc2N1c1c(Cl)cccc1Cl
RESULT: 3.38

QUERY: Requested read-out: growth. Entry: FC(F)(F)c1cccc(-c2[nH]ncc2-c2nnnn2-c2ccccc2)c1
RESULT: 34.2

QUERY: Requested read-out: growth. Entry: CCC(C)C1NC(=O)C(CCCCN)NC(=O)C(CCCCN)NC(=O)C(CC(C)C)NC(=O)C(CCCCN)NC(=O)C(C(C)CC)NC(=O)C(C(C)C)NC(=O)C(C(C)CC)NC(=O)C(CCCCN)NC(=O)C(CCCCN)NC(=O)C(C)NC(=O)C(CCCCN)NC(=O)C(CC(C)C)NC1=O (stereo not drawn)
RESULT: -9.52

QUERY: Requested read-out: growth. Entry: Cc1nnc(-c2cc3c(ccc4ccccc43)oc2=O)c2cn(-c3ccc(Cl)cc3)nc12
RESULT: 85.9

QUERY: Requested read-out: growth. Entry: COc1ccc2cc(C(C)C(=O)Nc3ccc(S(=O)(=O)Nc4cc(C)on4)cc3)ccc2c1 (stereo not drawn)
RESULT: 102

QUERY: Requested read-out: growth. Entry: CC(=O)N1N=C(c2ccc(Cl)cc2)CC1c1cn(-c2ccccc2)nc1-c1ccc([N+](=O)[O-])cc1 (stereo not drawn)
RESULT: 117

QUERY: Requested read-out: growth. Entry: COc1ccccc1Cn1cc2c(c1)-c1oncc1CC2
RESULT: 80.3

QUERY: Requested read-out: growth. Entry: CCc1ccc(C(=Nc2ccc(N(C)C(=O)CN3CCN(C)CC3)cc2)c2c(O)[nH]c3ccc(C(=O)OC)cc23)cc1
RESULT: -70.7
